Recorded values, source patent EP0687253B1.

Recorded TT250 by entry
# System: Pferdethrombin
# experimental.details: Thrombin time (clotting of human citrate plasma with thrombin reagent, ball coagulometer)
# Format: biochemical, Pferd
# test.context: thrombin time as difference to control (control ca. 24 Sek.); 250 µM in final volume; test stopped at 5 Min.
Report only the number, with the unit Sekunden understood.

Known TT250 results, listed for orientation:
[[record]]
mol = "O=S(=O)(Nc1cccc(OCCNc2ccncc2)c1)c1cccc2ccccc12"
test_target = "Pferdethrombin"
unit_name = "Sekunden"
measurement = 150

[[record]]
mol = "COc1ccc(OCCNc2ccncc2)cc1NS(=O)(=O)c1ccccc1"
test_target = "Pferdethrombin"
unit_name = "Sekunden"
measurement = 53


Lab note: next compound to report on.
Lookup: // returns reported TT250 for input COc1cc(OCCNc2ccncc2)cc(S(=O)(=O)N(C)c2ccccc2)c1
Found: 300

---

# Tested on: Pferdethrombin
# experimental.details: Thrombin time (clotting of human citrate plasma with thrombin reagent, ball coagulometer)
# Format: biochemical, Pferd
# test.context: thrombin time as difference to control (control ca. 24 Sek.); 250 µM in final volume; test stopped at 5 Min.
readout.name: TT250 (Sekunden)
Answer format: numeric, Sekunden implied, no suffix.

[[record]]
compound = "O=S(=O)(Nc1cc(Br)cc(NCCNc2ccncc2)c1)c1ccccc1 [Beispiel 89]"
measurement = 132

[[record]]
compound = "O=S(=O)(Nc1cccc(OCCNc2ccncc2)c1)C1CCCCC1 [Beispiel 8]"
measurement = 288

[[record]]
compound = "Cc1ccc(OCCNc2ccncc2)cc1NS(=O)(=O)c1ccccc1 [Beispiel 60]"
measurement = 137

[[record]]
compound = "O=S(=O)(Nc1cc(NCCNc2ccncc2)cc(C(F)(F)F)c1)c1ccccc1 [Beispiel 79]"
measurement = 30


Lookup: So what does the record say about TT250 for O=S(=O)(c1ccccc1)N(Cc1ccccc1)c1cccc(OCCNc2ccncc2)c1 [Beispiel 15] ?
Found: 270

Lookup: Follow-up entry: Cc1cc(OCCNc2ccncc2)cc(N(CCN)S(=O)(=O)c2ccccc2)c1 [Beispiel 100]
Found: 300

Lookup: Consider next the compound COc1cc(OCCNc2ccncc2)cc(N(C)S(=O)(=O)c2ccccc2)c1 [Beispiel 83] in the same way.
Found: 300

Lookup: One more compound: Cc1cc(OCCNc2ccncc2)cc(N(C)S(=O)(=O)c2ccccc2OCC(=O)O)c1 [Beispiel 124]
Found: 300

Lookup: // same read-out, input: CC(CNc1ccncc1)Oc1cccc(NS(=O)(=O)c2ccccc2)c1 (stereo not drawn) [Beispiel 10]
Found: 157

---

List of log10(Ki) tested on humanem α-Thrombin (Homo sapiens).
Scale type: logarithmic (base 10). Underlying Ki unit: nM.

[[record]]
compound = "CCOC(=O)N(c1cc(C)cc(OCCNc2ccncc2)c1)S(=O)(=O)c1ccccc1OC [Beispiel 125]"
test_target = "humanem α-Thrombin (Homo sapiens)"
measurement = 2.18


Lookup: Entry COc1cc(OCCNc2ccncc2)cc(S(=O)(=O)N(C)c2ccccc2)c1 [Beispiel 80] has what log10(Ki)?
Found: 2.18

Lookup: Check O=S(=O)(Nc1cc(Br)cc(NCCNc2ccncc2)c1)c1ccccc1 [Beispiel 89] too.
Found: 3.00

Lookup: And for Cc1cc(OCCNc2ccncc2)cc(N(C)S(=O)(=O)c2ccccc2OCC(=O)O)c1 [Beispiel 124] ?
Found: 2.40

Lookup: Field entry: COc1cc(OCCNc2ccncc2)cc(N(C)S(=O)(=O)c2ccccc2)c1 [Beispiel 83]
Found: 2.00

Lookup: Field entry: O=S(=O)(c1ccccc1)N(Cc1ccccc1)c1cccc(OCCNc2ccncc2)c1 [Beispiel 15]
Found: 2.11

Lookup: Try this compound too: O=S(=O)(c1cc(Cl)cc(NCCNc2ccncc2)c1)N(Cc1ccccc1)c1ccccc1 [Beispiel 86]
Found: 1.60

Lookup: Would you kindly repeat that for Cc1cc(OCCNc2ccncc2)cc(N(CCN)S(=O)(=O)c2ccccc2)c1 [Beispiel 100] ?
Found: 1.92

---

Each entry below carries its reported TT25.
# Test system: Pferdethrombin
# experimental.details: Thrombin time (clotting of human citrate plasma with thrombin reagent, ball coagulometer)
# Type: biochemical, Pferd
# test.context: thrombin time as difference to control (control ca. 24 Sek.); 25 µM in final volume; test stopped at 5 Min.
Write it as a number; the unit Sekunden goes unstated.

Recorded results for 5 molecules are shown here.
[[record]]
molecule = "COc1cc(OCCNc2ccncc2)cc(N(C)S(=O)(=O)c2ccccc2)c1 [Beispiel 83]"
readout_name = "TT25"
measurement = 192

[[record]]
molecule = "O=S(=O)(Nc1cc(NCCNc2ccncc2)cc(C(F)(F)F)c1)c1ccccc1 [Beispiel 79]"
readout_name = "TT25"
measurement = 8

[[record]]
molecule = "O=S(=O)(Nc1cc(Br)cc(NCCNc2ccncc2)c1)c1ccccc1 [Beispiel 89]"
readout_name = "TT25"
measurement = 38

[[record]]
molecule = "O=S(=O)(c1cc(Cl)cc(NCCNc2ccncc2)c1)N(Cc1ccccc1)c1ccccc1 [Beispiel 86]"
readout_name = "TT25"
measurement = 167

[[record]]
molecule = "COc1ccc(OCCNc2ccncc2)cc1NS(=O)(=O)c1ccccc1 [Beispiel 59]"
readout_name = "TT25"
measurement = 8


Lookup: Fill in: TT25 of Cc1ccc(OCCNc2ccncc2)cc1NS(=O)(=O)c1ccccc1 [Beispiel 60] is ___
Found: 62

Lookup: Request: O=S(=O)(c1ccccc1)N(Cc1ccccc1)c1cccc(OCCNc2ccncc2)c1 [Beispiel 15]
Found: 144

Lookup: And CCOC(=O)N(c1cc(C)cc(OCCNc2ccncc2)c1)S(=O)(=O)c1ccccc1OC [Beispiel 125] ?
Found: 273

Lookup: Now give it for Cc1cc(OCCNc2ccncc2)cc(N(C)S(=O)(=O)c2ccccc2OCC(=O)O)c1 [Beispiel 124] too.
Found: 300

Lookup: Note, next up: CC(CNc1ccncc1)Oc1cccc(NS(=O)(=O)c2ccccc2)c1 (centres unmarked) [Beispiel 10]
Found: 43

Lookup: Also Cc1cc(OCCNc2ccncc2)cc(N(CCN)S(=O)(=O)c2ccccc2)c1 [Beispiel 100] , if possible.
Found: 300

Lookup: Same thing, different molecule: COc1cc(OCCNc2ccncc2)cc(S(=O)(=O)N(C)c2ccccc2)c1 [Beispiel 80]
Found: 213

Lookup: Next up: CCc1cc(OCCNc2ccncc2)cc(OS(=O)(=O)c2ccccc2)c1 [Beispiel 90]
Found: 300

Lookup: Next record, please: Cc1cc(OCCNc2ccncc2)cc(N(CCCCCC(=O)O)S(=O)(=O)c2ccccc2)c1 [Beispiel 108]
Found: 300

Lookup: Again, but for Cc1cc(OCCN(C)c2ccncc2)cc(OS(=O)(=O)c2ccccc2Cl)c1 [Beispiel 72]
Found: 300

Lookup: # iterate: O=S(=O)(Nc1cccc(OCCNc2ccncc2)c1)C1CCCCC1 [Beispiel 8]
Found: 58

Lookup: Queued: O=S(=O)(Nc1cccc(OCCNc2ccncc2)c1)c1cccc2ccccc12 [Beispiel 2]
Found: 40

---

Values of Ki reported for humanem α-Thrombin (Homo sapiens, UniProt P00734) appear below.

Solved entries (count: 4):
[[record]]
compound = "Cc1cc(OCCN(C)c2ccncc2)cc(OS(=O)(=O)c2ccccc2Cl)c1 [Beispiel 72]"
test_target = "humanem α-Thrombin (Homo sapiens, UniProt P00734)"
readout_name = "Ki"
measurement = "0.024 µM"

[[record]]
compound = "Cc1ccc(OCCNc2ccncc2)cc1NS(=O)(=O)c1ccccc1 [Beispiel 60]"
test_target = "humanem α-Thrombin (Homo sapiens, UniProt P00734)"
readout_name = "Ki"
measurement = "0.6 µM"

[[record]]
compound = "CC(CNc1ccncc1)Oc1cccc(NS(=O)(=O)c2ccccc2)c1 (centres unmarked) [Beispiel 10]"
test_target = "humanem α-Thrombin (Homo sapiens, UniProt P00734)"
readout_name = "Ki"
measurement = "3 µM"

[[record]]
compound = "CCc1cc(OCCNc2ccncc2)cc(OS(=O)(=O)c2ccccc2)c1 [Beispiel 90]"
test_target = "humanem α-Thrombin (Homo sapiens, UniProt P00734)"
readout_name = "Ki"
measurement = "0.024 µM"


// next item, Ki requested
Lookup: Form field - read-out: Ki; system: humanem α-Thrombin (Homo sapiens, UniProt P00734); submitted item: Cc1cc(OCCNc2ccncc2)cc(N(CCCCCC(=O)O)S(=O)(=O)c2ccccc2)c1 [Beispiel 108]
Found: 0.055 µM
